Task for the reader: assign each of the following molecules its reported log10 TGI.
- Test system: SF-539 CNS
- Protocol Notes: NCI tumour cell line growth inhibition, 48 h
Recorded TGI (log10, µM)

*Q* Look at this molecule and give its reported log10 TGI. CCOC(=O)c1cc2/c(=C\c3ccc(N(C)C)cc3)c3ccccc3n2[n+]1C
*A* 0.60

*Q* Ok, now C/C=C(\C)C(O)C(C)C(O)C/C=C(C)/C=C(\C)C/C(C)=C/C/C=C(\C)C(O)C(C)c1ccc(CCC)c(=O)o1 (stereo not given)
*A* 1.45

*Q* What do you get for CCC[CH2][Sn]1([CH2]CCC)[O]CC(CN(C)Cc2ccccc2)[O]1 (stereo not given) ?
*A* 1.31

*Q* What about COc1cc(-c2cc(O)c(-c3ccc4ccccc4n3)c(=O)[nH]2)cc(OC)c1OC ?
*A* 1.87

*Q* Try this molecule too: Cc1ccc(NC(=O)CC2Sc3ccccc3NC2=O)c(C)c1 (stereo not given)
*A* 1.47

*Q* Entry to check: COc1cc(C2c3cc4c(cc3OC(NNS(=O)(=O)c3ccc(C)cc3)C2C)OCO4)cc(OC)c1O (stereo not given)
*A* 1.50

###

- Tested on: SK-MEL-2 melanoma
- Protocol Notes: NCI tumour cell line growth inhibition, 48 h
Value Kind: GI50

*Q* What value of GI50 has been recorded for this entry: CC(C)=CCC[C@](C)(O)[C@H]1CC[C@]2(C)[C@@H]1CC[C@@H]1[C@@]3(C)CC/C(=N/O)C(C)(C)[C@@H]3CC[C@]12C
*A* 15.3 µM

*Q* Could you do the same for O=c1cc(-c2cccc3c2Sc2ccccc2S3)oc(N2CCOCC2)c1 , please?
*A* 5.71 µM

*Q* // same read-out, input: CC(=O)c1c(C)[nH]c(-c2nc3ccc(N4CCN(C)CC4)cc3[nH]2)c1-c1ccc(N(C)C)cc1
*A* 2.58 µM

*Q* Also check COc1cc(NCCCN=C(N)NC(N)=NC(C)C)c2ncccc2c1
*A* 2.68 µM

*Q* Next record, please: Cn1c2c(c3ccc([N+](=O)[O-])cc3c1=O)C(=O)c1ccccc1-2
*A* > 100 µM

*Q* Queued: C[C@@]12CCC[C@@](C)(C(=O)O)C1CC[C@]13C[C@@](O)(CO)[C@](O)(CCC12)C3 (some centres undefined)
*A* > 100 µM

*Q* And then COc1ccc2c(=O)cc(C(Cl)(Cl)Cl)oc2c1 , what is it?
*A* 0.488 µM

*Q* And what about the compound Cc1cc(N2CCOCC2)nc(N[C@@H]2CCC[C@H](Nc3ccnc4cc(Cl)ccc34)C2)n1 ?
*A* 2.07 µM

*Q* What about this compound? CCC[CH2][Sn]1([CH2]CCC)[O]CC(CN(C)Cc2ccccc2)[O]1 (centres undefined)
*A* 4.27 µM

###

- System: HT29 colon
- Protocol Notes: NCI tumour cell line growth inhibition, 48 h
Please go through the items and note down their TGI.
Kindly answer with a numeric value in µM, unit omitted.

*Q* Which measured TGI value corresponds to CCC(=C/[C@H](C)C/C=C/C(C)=C/[C@@H](C)C(=O)[C@@H](C)[C@H](O)[C@@H](C)CC)/C=C/[C@@H]1OC(=O)C=C[C@H]1C ?
*A* 1.4

*Q* Continue with O=C(NCCCO)c1cc(Cl)ccc1O
*A* 10.8

# credit: PubChem BioAssay (NCI)
